tested on: 227483-062-R1-J1-PDC complex spheroids with HUVEC/MSC, viability; assay: Anticancer human tumor 227483-062-R1-J1-PDC patient-derived pancreatic carcinoma cell line growth inhibition [CLK]; conditions: second compound 10 µM; first compound 0.03 µM; active = viability on the fitted dose curve at most 10% of control; inactive = the rest;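 also: spheroids exposed to compounds for seven days before readout; percent of DMSO vehicle control luminescence as 100% viability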
Classes used: true (1) for active, false (0) for inactive

INSERT INTO assay_data (molecule, category) VALUES
  ('C=CC(=O)Nc1cc(Nc2nccc(-c3cn(C)c4ccccc34)n2)c(OC)cc1N(C)CCN(C)C + CNC(=O)c1ccc(Nc2nc(OC3CCCC3)c3c(-c4ccc5nc(C)oc5c4)c[nH]c3n2)c(OC)c1', 'false (0)'),
  ('CC(C)CC(NC(=O)C(Cc1ccccc1)NC(=O)c1cnccn1)B(O)O (stereo unspecified) + CN1CCN(c2cc(C(=O)Nc3cc4cc(-c5cnn(C)c5)ccc4cn3)ccn2)CC1', 'true (1)'),
  ('CC(C)CC(NC(=O)C(Cc1ccccc1)NC(=O)c1cnccn1)B(O)O (stereo unspecified) + CNC(=O)c1ccc(Nc2nc(OC3CCCC3)c3c(-c4ccc5nc(C)oc5c4)c[nH]c3n2)c(OC)c1', 'true (1)'),
  ('C=CC(=O)Nc1cc(Nc2nccc(-c3cn(C)c4ccccc34)n2)c(OC)cc1N(C)CCN(C)C + CN1CCN(c2cc(C(=O)Nc3cc4cc(-c5cnn(C)c5)ccc4cn3)ccn2)CC1', 'true (1)'),
  ('NC(=O)C(=Cn1cnc(-c2cc(C(F)(F)F)cc(C(F)(F)F)c2)n1)c1cncnc1 + CNC(=O)c1ccc(Nc2nc(OC3CCCC3)c3c(-c4ccc5nc(C)oc5c4)c[nH]c3n2)c(OC)c1', 'false (0)'),
  ('NC(=O)C(=Cn1cnc(-c2cc(C(F)(F)F)cc(C(F)(F)F)c2)n1)c1cncnc1 + CN1CCN(c2cc(C(=O)Nc3cc4cc(-c5cnn(C)c5)ccc4cn3)ccn2)CC1', 'true (1)');
